molecular target: Protein skinhead-1 (Caenorhabditis elegans); assay type: functional
Sequence (P34707 whole entry): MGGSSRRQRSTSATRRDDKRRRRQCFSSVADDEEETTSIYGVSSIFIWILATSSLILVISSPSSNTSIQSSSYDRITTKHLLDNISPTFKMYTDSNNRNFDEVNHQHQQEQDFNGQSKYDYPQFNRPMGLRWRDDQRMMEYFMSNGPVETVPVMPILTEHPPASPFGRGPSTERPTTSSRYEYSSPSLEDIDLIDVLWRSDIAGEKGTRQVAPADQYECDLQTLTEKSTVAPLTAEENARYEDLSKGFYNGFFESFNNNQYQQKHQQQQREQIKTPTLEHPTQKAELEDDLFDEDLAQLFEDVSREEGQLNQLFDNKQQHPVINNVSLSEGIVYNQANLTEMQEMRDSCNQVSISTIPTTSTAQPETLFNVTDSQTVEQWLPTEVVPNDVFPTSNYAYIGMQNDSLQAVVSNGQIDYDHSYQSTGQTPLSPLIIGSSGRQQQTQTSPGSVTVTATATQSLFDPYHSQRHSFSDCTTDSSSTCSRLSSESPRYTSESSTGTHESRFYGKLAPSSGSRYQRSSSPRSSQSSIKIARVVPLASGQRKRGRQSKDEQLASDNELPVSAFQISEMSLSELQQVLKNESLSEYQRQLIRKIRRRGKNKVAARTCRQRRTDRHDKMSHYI
Calls of active or inactive are those of the source.
Outcome codes: active, inactive

{"columns": ["given-smiles", "category-label"],
 "data": [
  ["COc1cc(SC)ccc1C(=O)Nc1ccc(Cl)cn1", "inactive"],
  ["O=C(/C=C\\Nc1ccccn1)c1ccccc1", "active"],
  ["CCOc1ccc2nc(NC(=O)c3ccco3)sc2c1", "inactive"],
  ["O=C(/C=C/Nc1ccc(Br)cc1F)c1ccco1", "active"],
  ["COc1ccc2nc(NC(=O)c3ccc(Br)s3)sc2c1", "inactive"]
]}

====

experiment: growth suppression of PTEN-null colon cells, dose response, cell-based, HCT116 PTEN knockout (AID 1047); type: functional;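 note: HCT116 colon tumor cells with PTEN knocked out; cells exposed to compound for 60 hours before readout; potency for loss of cell viability measured by luminescence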
Activity calls are given as the source filed them.

{"columns": ["compound", "EC50"],
 "data": [
  ["Cc1ccc(-c2nc(N/N=C/c3ccncc3)c3ccccc3n2)cc1", "59.3 µM (active)"],
  ["CCCc1nc(SCC(=O)N2CCC(Cc3ccccc3)CC2)c2c(=O)n(C)c(=O)n(C)c2n1", "33.6 µM (active)"],
  ["CCOC(=O)C1CCN(C(=O)c2c(C)oc3c2C(=O)c2ccccc2C3=O)CC1", "3.87 µM (active)"],
  ["COc1ccc(-c2cc(C(F)(F)F)c(C#N)c(SCC(=O)Nc3nc(C)co3)n2)cc1", "10.9 µM (active)"],
  ["Cc1cccc(-c2nnc(NC(=O)c3ccc(Cl)cc3)o2)c1", "23.1 µM (active)"],
  ["CCOC(=O)C1CCCN(C(=O)Cn2sc3nc(C)cc(C)c3c2=O)C1 (stereo not drawn)", "25.9 µM (active)"],
  ["CCCN(CCC)S(=O)(=O)c1ccc(C(=O)Nc2nnc(CSC)o2)cc1", "14.2 µM (active)"],
  ["C#CCN1C(=O)C(O)(CC(=O)c2ccc(OC)c(OC)c2)c2ccccc21 (stereo not drawn)", "18 µM (active)"]
]}
